The following molecules are listed with their measured IC50 values.
molecular target: PRMT5-MEP50 enzyme (Homo sapiens, UniProt O14744); construct: One virus expresses full length human PRMT5 with Flag-tag at N-terminus; Flag (N); purchased Charles River (Argenta); host or cells: insect cells (Sf9), baculovirus co-infection; experiment: In vitro assay 1a: PRMT5-MEP50 high throughput mass spectrometer assay (SAH formation), 10 nM enzyme; format: biochemical; settings: 1 μM SAM, 0.3 μM H2A, 30° C., 60 min, averaged values, read-out: pIC50 Assay 1a (converted)
Sequence (O14744 whole entry): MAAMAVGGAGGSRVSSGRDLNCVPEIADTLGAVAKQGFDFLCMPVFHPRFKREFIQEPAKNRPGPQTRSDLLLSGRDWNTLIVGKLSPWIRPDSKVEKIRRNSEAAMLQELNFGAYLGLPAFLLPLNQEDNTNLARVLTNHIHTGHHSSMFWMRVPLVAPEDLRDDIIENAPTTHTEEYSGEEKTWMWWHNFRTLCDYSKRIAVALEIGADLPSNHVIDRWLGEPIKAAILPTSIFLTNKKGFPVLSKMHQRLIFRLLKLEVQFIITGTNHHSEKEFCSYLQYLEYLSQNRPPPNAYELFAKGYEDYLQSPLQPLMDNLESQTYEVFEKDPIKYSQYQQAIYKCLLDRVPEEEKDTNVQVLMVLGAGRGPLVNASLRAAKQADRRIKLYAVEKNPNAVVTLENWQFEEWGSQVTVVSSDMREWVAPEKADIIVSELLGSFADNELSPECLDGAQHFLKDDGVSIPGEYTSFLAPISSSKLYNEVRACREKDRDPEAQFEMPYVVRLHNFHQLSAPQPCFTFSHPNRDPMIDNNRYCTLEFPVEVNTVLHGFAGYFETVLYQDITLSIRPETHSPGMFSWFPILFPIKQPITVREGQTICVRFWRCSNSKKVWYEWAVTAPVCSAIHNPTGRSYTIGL
Sequence (Q9BQA1 whole entry partner): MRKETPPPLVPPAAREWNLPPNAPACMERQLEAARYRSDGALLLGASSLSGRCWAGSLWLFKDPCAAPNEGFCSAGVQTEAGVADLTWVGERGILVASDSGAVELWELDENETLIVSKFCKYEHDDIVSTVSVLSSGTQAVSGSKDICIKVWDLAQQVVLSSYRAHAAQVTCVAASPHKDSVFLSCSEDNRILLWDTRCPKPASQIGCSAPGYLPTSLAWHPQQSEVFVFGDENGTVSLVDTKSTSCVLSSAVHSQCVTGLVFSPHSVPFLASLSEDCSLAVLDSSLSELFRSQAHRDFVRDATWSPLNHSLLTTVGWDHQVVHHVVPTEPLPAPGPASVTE
# output: bare number, implied unit nM

Worked cases, IC50 given:
Cn1cnc2cc(CC[C@H]3C[C@@H](n4ccc5c(N)ncnc54)[C@H](O)[C@@H]3O)ccc21 ... 12.6
Cc1cnc2cc(CC[C@H]3C[C@@H](n4ccc5c(N)ncnc54)[C@H](O)[C@@H]3O)ccn12 ... 0.794
Cn1cnc2cc(OC[C@H]3C[C@@H](n4ccc5c(N)ncnc54)[C@H](O)[C@@H]3O)ccc21 ... 126

-- ask Tell me the measured IC50 of "Nc1ncnc2c1ccn2[C@@H]1C[C@H](CCc2ccn3c(Br)cnc3c2)[C@@H](O)[C@H]1O" , please.
-- reply 1.26

-- ask Tell me the measured IC50 of "Nc1ncnc2c1ccn2[C@@H]1C[C@H](CCc2cc3ncccc3o2)[C@@H](O)[C@H]1O" , please.
-- reply 1260

-- ask Tell me the measured IC50 of "Nc1ncnc2c1ccn2[C@@H]1C[C@H](CCc2cc3ncccc3s2)[C@@H](O)[C@H]1O" , please.
-- reply 39.8

-- ask Tell me the measured IC50 of "Nc1ncnc2c1ccn2[C@@H]1C[C@H](COc2ccn3ccnc3c2)[C@@H](O)[C@H]1O" , please.
-- reply 31.6

-- ask Tell me the measured IC50 of "Nc1ncnc2c1ccn2[C@@H]1C[C@H](CCc2cc3ncccc3[nH]2)[C@@H](O)[C@H]1O" , please.
-- reply 39.8

// provenance: patent US11098062B2
